molecular target: CD81 antigen (Homo sapiens); assay: Inhibition of human recombinant GST-tagged CD81 protein assessed as HCV E1E2 binding after 1 hr by Western blot analysis
Active and inactive are the calls of the source. The calls are words filed in the database; no cut-off is given here.
experimentalEndpoint: Activity

Which Activity reading was recorded for the compound COC(=O)C1=CO[C@@H](O)[C@@H]2C(CO)=CC[C@H]12 ? inactive

Which Activity reading was recorded for the compound COC(=O)C1=COC(O)[C@H]2[C@@H]1[C@H](O)[C@H](O)C2(C)O (mixture of isomers) ? inactive

Which Activity reading was recorded for the compound O=C(/C=C/c1ccc(O)cc1)OCC1=C[C@@H](O)[C@@H]2C=CO[C@@H](O[C@@H]3O[C@H](CO)[C@@H](O)[C@H](O)[C@H]3O)[C@H]12 [EUROSTOSIDE] ? inactive
